tested on: HIF-1α protein expression in A375 melanoma cells; experiment: HIF-1α protein accumulation in A375 cells (immunoblot, densitometry); type: cell-based, human; details: read-out: IC50 for inhibition of HIF-1α protein increase induced by 10 nM Cl-IB-MECA, hypoxia 4 hours, MRE 3008F20 0.3-30 nM
measure: IC50 (nM)

INSERT INTO assay_data (compound, measure, value_reported) VALUES
  ('CCCn1cc2c(nc(NC(=O)Nc3ccc(OC)cc3)n3nc(-c4ccco4)nc23)n1 [MRE 3008F20]', 'IC50', 0.9);
